- protocol.summary: Clearance in rat microsomes assessed per mg of protein at 0.5 uM
- Assay type: ADME, Liver, Microsome
- assay.conditions: microsomes, 0.5 µM
recorded.endpoint: clearance (µL/min/mg)
Reply numerically in µL/min/mg, unit not repeated.

Data request: Could you please provide reported clearance for `CC1(C)CC(=O)c2sc(N3CCOc4ccc(-c5ccccc5)cc43)nc2C1` ? Thanks!
Data returned: 15

---

- tested.target: Phosphatidylinositol 4,5-bisphosphate 3-kinase catalytic subunit gamma isoform (Homo sapiens, UniProt P48736)
- Sequence (P48736 whole entry, canonical isoform): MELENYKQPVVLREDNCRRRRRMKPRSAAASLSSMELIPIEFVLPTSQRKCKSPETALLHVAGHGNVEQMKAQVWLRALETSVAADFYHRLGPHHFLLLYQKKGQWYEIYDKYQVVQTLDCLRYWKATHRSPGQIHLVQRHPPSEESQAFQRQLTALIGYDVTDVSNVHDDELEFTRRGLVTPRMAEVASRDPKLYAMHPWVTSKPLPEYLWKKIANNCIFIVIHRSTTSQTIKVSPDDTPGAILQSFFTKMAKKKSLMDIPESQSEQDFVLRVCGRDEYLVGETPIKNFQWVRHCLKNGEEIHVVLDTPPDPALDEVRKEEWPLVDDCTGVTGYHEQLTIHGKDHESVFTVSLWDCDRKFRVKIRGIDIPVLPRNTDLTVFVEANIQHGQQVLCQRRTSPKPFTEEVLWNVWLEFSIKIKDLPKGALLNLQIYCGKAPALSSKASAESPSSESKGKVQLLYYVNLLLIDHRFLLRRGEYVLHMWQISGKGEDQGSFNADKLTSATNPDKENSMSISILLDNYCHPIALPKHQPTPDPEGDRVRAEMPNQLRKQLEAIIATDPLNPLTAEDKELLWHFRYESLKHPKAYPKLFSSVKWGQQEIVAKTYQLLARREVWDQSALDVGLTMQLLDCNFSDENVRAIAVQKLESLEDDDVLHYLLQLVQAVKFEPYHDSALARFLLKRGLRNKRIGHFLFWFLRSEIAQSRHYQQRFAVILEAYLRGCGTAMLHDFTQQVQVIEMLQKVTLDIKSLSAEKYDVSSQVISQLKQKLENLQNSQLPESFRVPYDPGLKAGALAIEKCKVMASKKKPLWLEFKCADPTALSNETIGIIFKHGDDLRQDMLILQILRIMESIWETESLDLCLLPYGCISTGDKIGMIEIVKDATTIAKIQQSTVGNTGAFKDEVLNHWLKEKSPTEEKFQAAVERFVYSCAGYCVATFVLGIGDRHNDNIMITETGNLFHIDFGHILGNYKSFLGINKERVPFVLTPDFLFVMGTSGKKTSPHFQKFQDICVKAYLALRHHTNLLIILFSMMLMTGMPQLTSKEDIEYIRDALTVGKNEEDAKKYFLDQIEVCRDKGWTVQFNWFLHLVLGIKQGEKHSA
- protocol.summary: Inhibition of PI3K gamma
What IC50 was measured for each of the following?
Reply numerically in µM, unit not repeated.

Data request: Could you please provide reported IC50 for `CC1(C)Cc2nc(N3CCOc4ccc(-c5ncccn5)cc43)sc2C(=O)N1` ? Thanks!
Data returned: 0.189

Data request: Could you please provide reported IC50 for `CC1(C)CC(=O)c2sc(N3CCOc4ccc(-c5ccccn5)cc43)nc2C1` ? Thanks!
Data returned: 0.258

Data request: Could you please provide reported IC50 for `CC1(C)CC(=O)c2sc(N3CCOc4ccc(-c5cn[nH]c5)cc43)nc2C1` ? Thanks!
Data returned: 0.077

---

- tested.target: Serine/threonine-protein kinase mTOR (Homo sapiens, UniProt P42345)
- protocol.summary: Inhibition of mTOR
pIC50: −log10 of the molar value.
recorded.endpoint: pIC50

Data request: Could you please provide reported pIC50 for `Cc1ccc(-c2ccc3c(c2)N(c2nc4c(s2)C(=O)NC(C)(C)C4)CCO3)cn1` ? Thanks!
Data returned: < 4.82

---

- tested.target: Phosphatidylinositol 4,5-bisphosphate 3-kinase catalytic subunit gamma isoform (Homo sapiens, UniProt P48736)
- protocol.summary: Inhibition of PI3K gamma
What log10 of IC50 was measured for each of the following?
Recorded IC50 (log10, nM)

Data request: Could you please provide reported log10 of IC50 for `CC1(C)CC(=O)c2sc(N3CCOc4ccc(-c5cccnc5)cc43)nc2C1` ? Thanks!
Data returned: 2.05

Data request: Could you please provide reported log10 of IC50 for `Cc1ccc2c(c1)OCCN2c1nc2c(s1)C(=O)NC(C)(C)C2` ? Thanks!
Data returned: 2.73

Data request: Could you please provide reported log10 of IC50 for `CC1(C)Cc2nc(N3CCOc4ccc(Br)cc43)sc2C(=O)N1` ? Thanks!
Data returned: 2.51

Data request: Could you please provide reported log10 of IC50 for `CC1(C)Cc2nc(N3CCOc4ccccc43)sc2C(=O)N1` ? Thanks!
Data returned: 2.98

Data request: Could you please provide reported log10 of IC50 for `CC1(C)CC(=O)c2sc(N3CCOc4ncccc43)nc2C1` ? Thanks!
Data returned: 3.82

Data request: Could you please provide reported log10 of IC50 for `CC1(C)CC(=O)c2sc(N3CCOc4cc(Br)ccc43)nc2C1` ? Thanks!
Data returned: 3.50

Data request: Could you please provide reported log10 of IC50 for `Cc1nc(-c2ccc3c(c2)N(c2nc4c(s2)C(=O)NC(C)(C)C4)CCO3)c[nH]1` ? Thanks!
Data returned: 2.03

Data request: Could you please provide reported log10 of IC50 for `CC1(C)Cc2nc(N3CCOc4ccc(-c5ccccc5)cc43)sc2C(=O)N1` ? Thanks!
Data returned: 1.90

Data request: Could you please provide reported log10 of IC50 for `CC1(C)Cc2nc(N3CCOc4c(F)cccc43)sc2C(=O)N1` ? Thanks!
Data returned: 4.23

Data request: Could you please provide reported log10 of IC50 for `CC1(C)CC(=O)c2sc(N3CCOc4ccc(-c5ccccc5)cc43)nc2C1` ? Thanks!
Data returned: 2.93

Data request: Could you please provide reported log10 of IC50 for `CC1(C)CC(=O)c2sc(N3CCOc4ccc(Br)cc43)nc2C1` ? Thanks!
Data returned: 2.92

Data request: Could you please provide reported log10 of IC50 for `Cn1ccnc1-c1ccc2c(c1)N(c1nc3c(s1)C(=O)NC(C)(C)C3)CCO2` ? Thanks!
Data returned: 2.91

Data request: Could you please provide reported log10 of IC50 for `CC1(C)Cc2nc(N3CCOc4ccc(-c5cnc[nH]5)cc43)sc2C(=O)N1` ? Thanks!
Data returned: 2.21

Data request: Could you please provide reported log10 of IC50 for `CC1(C)Cc2nc(N3CCOc4ccc(C5CC5)cc43)sc2C(=O)N1` ? Thanks!
Data returned: 2.32

Data request: Could you please provide reported log10 of IC50 for `CC1(C)Cc2nc(N3CCOCC3)sc2C(=O)N1` ? Thanks!
Data returned: 3.72

Data request: Could you please provide reported log10 of IC50 for `Cn1cc(-c2ccc3c(c2)N(c2nc4c(s2)C(=O)CC(C)(C)C4)CCO3)cn1` ? Thanks!
Data returned: 1.72

Data request: Could you please provide reported log10 of IC50 for `CC1(C)CC(=O)c2sc(N3CCOc4ccc(-c5ccncc5)cc43)nc2C1` ? Thanks!
Data returned: 2.20

Data request: Could you please provide reported log10 of IC50 for `CC1(C)Cc2nc(N3CCOc4ccc(-c5ccn[nH]5)cc43)sc2C(=O)N1` ? Thanks!
Data returned: 2.16

Data request: Could you please provide reported log10 of IC50 for `Cc1ccc(-c2ccc3c(c2)N(c2nc4c(s2)C(=O)CC(C)(C)C4)CCO3)cn1` ? Thanks!
Data returned: 1.86

Data request: Could you please provide reported log10 of IC50 for `CC1(C)CC(=O)c2sc(N3CCOc4ccccc43)nc2C1` ? Thanks!
Data returned: 2.92

---

- protocol.summary: Clearance in Han-Wistar rat at 1 mg/kg, iv
- Assay type: ADME, organism-based
- Design: dose 1 mg/kg, route intravenous
- assay.conditions: in vivo
recorded.endpoint: clearance (mL/min/kg)
Reply numerically in mL/min/kg, unit not repeated.

Data request: Could you please provide reported clearance for `Cn1cc(-c2ccc3c(c2)N(c2nc4c(s2)C(=O)NC(C)(C)C4)CCO3)cn1` ? Thanks!
Data returned: 7

---

- tested.target: Phosphatidylinositol 4,5-bisphosphate 3-kinase catalytic subunit beta isoform (Homo sapiens)
- Sequence (P42338 whole entry, canonical isoform): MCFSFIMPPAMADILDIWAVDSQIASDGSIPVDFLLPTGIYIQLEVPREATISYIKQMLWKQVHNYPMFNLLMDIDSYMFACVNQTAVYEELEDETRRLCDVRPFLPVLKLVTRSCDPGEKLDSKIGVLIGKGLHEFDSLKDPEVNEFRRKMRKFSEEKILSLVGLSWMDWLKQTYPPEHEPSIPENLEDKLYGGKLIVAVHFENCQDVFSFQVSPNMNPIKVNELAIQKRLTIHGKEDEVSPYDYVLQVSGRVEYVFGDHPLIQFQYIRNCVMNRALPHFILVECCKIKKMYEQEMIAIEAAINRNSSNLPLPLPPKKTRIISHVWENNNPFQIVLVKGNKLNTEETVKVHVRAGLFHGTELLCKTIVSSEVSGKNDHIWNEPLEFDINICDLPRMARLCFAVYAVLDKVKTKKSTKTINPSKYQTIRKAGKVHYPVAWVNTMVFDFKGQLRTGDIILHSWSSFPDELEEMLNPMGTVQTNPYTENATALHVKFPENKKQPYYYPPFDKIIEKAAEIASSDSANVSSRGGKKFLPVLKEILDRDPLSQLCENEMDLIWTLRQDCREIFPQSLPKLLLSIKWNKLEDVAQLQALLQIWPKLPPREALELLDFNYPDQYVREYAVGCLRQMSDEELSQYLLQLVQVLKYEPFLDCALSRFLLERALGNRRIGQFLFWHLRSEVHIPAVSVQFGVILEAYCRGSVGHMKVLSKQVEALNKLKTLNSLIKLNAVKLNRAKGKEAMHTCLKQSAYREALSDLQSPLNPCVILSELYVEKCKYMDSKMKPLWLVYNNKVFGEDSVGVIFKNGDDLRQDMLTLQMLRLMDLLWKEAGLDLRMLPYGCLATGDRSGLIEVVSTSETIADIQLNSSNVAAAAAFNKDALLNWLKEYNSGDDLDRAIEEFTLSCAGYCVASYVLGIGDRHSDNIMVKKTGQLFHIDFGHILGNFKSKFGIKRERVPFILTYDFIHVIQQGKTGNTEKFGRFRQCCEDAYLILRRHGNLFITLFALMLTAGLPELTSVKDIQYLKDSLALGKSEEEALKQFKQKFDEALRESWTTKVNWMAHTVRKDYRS
- protocol.summary: Inhibition of PI3K beta
Note to self: IC50 under 1 µM means MET, ties and anything higher get NOT MET.

Data request: Dear colleague, could you confirm whether IC50 of `Cc1nc(-c2ccc3c(c2)N(c2nc4c(s2)C(=O)NC(C)(C)C4)CCO3)c[nH]1` falls below 1 µM? Thanks.
Data returned: MET

Data request: Dear colleague, could you confirm whether IC50 of `CC1(C)CC(=O)c2sc(N3CCOc4ccc(Br)cc43)nc2C1` falls below 1 µM? Thanks.
Data returned: NOT MET

Data request: Dear colleague, could you confirm whether IC50 of `CN(C)Cc1ccc2c(c1)N(c1nc3c(s1)C(=O)NC(C)(C)C3)CCO2` falls below 1 µM? Thanks.
Data returned: NOT MET

Data request: Dear colleague, could you confirm whether IC50 of `CC1(C)Cc2nc(N3CCOc4c(F)cccc43)sc2C(=O)N1` falls below 1 µM? Thanks.
Data returned: NOT MET

Data request: Dear colleague, could you confirm whether IC50 of `Cn1ccnc1-c1ccc2c(c1)N(c1nc3c(s1)C(=O)NC(C)(C)C3)CCO2` falls below 1 µM? Thanks.
Data returned: NOT MET

Data request: Dear colleague, could you confirm whether IC50 of `CC1(C)CC(=O)c2sc(N3CCOc4ccc(-c5ccccn5)cc43)nc2C1` falls below 1 µM? Thanks.
Data returned: NOT MET

Data request: Dear colleague, could you confirm whether IC50 of `Cc1ccc2c(c1)N(c1nc3c(s1)C(=O)NC(C)(C)C3)CCO2` falls below 1 µM? Thanks.
Data returned: MET

Data request: Dear colleague, could you confirm whether IC50 of `CC1(C)CC(=O)c2sc(N3CCOc4cc(Br)ccc43)nc2C1` falls below 1 µM? Thanks.
Data returned: NOT MET

Data request: Dear colleague, could you confirm whether IC50 of `Cc1ccc(-c2ccc3c(c2)N(c2nc4c(s2)C(=O)NC(C)(C)C4)CCO3)cn1` falls below 1 µM? Thanks.
Data returned: MET

Data request: Dear colleague, could you confirm whether IC50 of `CC1(C)Cc2nc(N3CCOCC3)sc2C(=O)N1` falls below 1 µM? Thanks.
Data returned: MET

---

What IC50 was measured for each of the following?
- tested.target: Phosphatidylinositol 4,5-bisphosphate 3-kinase catalytic subunit beta isoform (Homo sapiens)
- protocol.summary: Inhibition of PI3K beta
Reply numerically in nM, unit not repeated.

Data request: Could you please provide reported IC50 for `Cc1ccc(-c2ccc3c(c2)N(c2nc4c(s2)C(=O)CC(C)(C)C4)CCO3)cn1` ? Thanks!
Data returned: 308

Data request: Could you please provide reported IC50 for `CC1(C)Cc2nc(N3CCOc4ccc(Br)cc43)sc2C(=O)N1` ? Thanks!
Data returned: 1620

Data request: Could you please provide reported IC50 for `COc1ccc2c(c1)OCCN2c1nc2c(s1)C(=O)NC(C)(C)C2` ? Thanks!
Data returned: 1590

Data request: Could you please provide reported IC50 for `CC1(C)CC(=O)c2sc(N3CCOc4ncccc43)nc2C1` ? Thanks!
Data returned: 5310

Data request: Could you please provide reported IC50 for `CC1(C)Cc2nc(N3CCOc4ccc(-c5cnc[nH]5)cc43)sc2C(=O)N1` ? Thanks!
Data returned: 727

Data request: Could you please provide reported IC50 for `CC1(C)CC(=O)c2sc(N3CCOc4ccc(-c5ccncc5)cc43)nc2C1` ? Thanks!
Data returned: 1050

Data request: Could you please provide reported IC50 for `CC1(C)CC(=O)c2sc(N3CCOc4ccc(-c5ccccc5)cc43)nc2C1` ? Thanks!
Data returned: 7990

Data request: Could you please provide reported IC50 for `CC1(C)Cc2nc(N3CCOc4ccc(-c5ncccn5)cc43)sc2C(=O)N1` ? Thanks!
Data returned: 623

Data request: Could you please provide reported IC50 for `CC1(C)Cc2nc(N3CCOc4ccc(-c5ccn[nH]5)cc43)sc2C(=O)N1` ? Thanks!
Data returned: 1470

Data request: Could you please provide reported IC50 for `CC1(C)Cc2nc(N3CCOc4ccccc43)sc2C(=O)N1` ? Thanks!
Data returned: 1230

Data request: Could you please provide reported IC50 for `CC1(C)Cc2nc(N3CCOc4ccc(C5CC5)cc43)sc2C(=O)N1` ? Thanks!
Data returned: 834

Data request: Could you please provide reported IC50 for `Cn1cc(-c2ccc3c(c2)N(c2nc4c(s2)C(=O)CC(C)(C)C4)CCO3)cn1` ? Thanks!
Data returned: 336

Data request: Could you please provide reported IC50 for `CC(=O)c1ccc2c(c1)N(c1nc3c(s1)C(=O)NC(C)(C)C3)CCO2` ? Thanks!
Data returned: 1450

Data request: Could you please provide reported IC50 for `CC1(C)CC(=O)c2sc(N3CCOc4ccccc43)nc2C1` ? Thanks!
Data returned: 511

Data request: Could you please provide reported IC50 for `CC1(C)Cc2nc(N3CCOc4cc(F)ccc43)sc2C(=O)N1` ? Thanks!
Data returned: 1240

Data request: Could you please provide reported IC50 for `CC1(C)CC(=O)c2sc(N3CCOc4ccc(-c5cccnc5)cc43)nc2C1` ? Thanks!
Data returned: 376

Data request: Could you please provide reported IC50 for `CC1(C)Cc2nc(N3CCOc4ccc(-c5ccccc5)cc43)sc2C(=O)N1` ? Thanks!
Data returned: 3660

Data request: Could you please provide reported IC50 for `Cc1ccc2c(c1)OCCN2c1nc2c(s1)C(=O)NC(C)(C)C2` ? Thanks!
Data returned: 1620

Data request: Could you please provide reported IC50 for `CC1(C)CC(=O)c2sc(N3CCOc4ccc(-c5cn[nH]c5)cc43)nc2C1` ? Thanks!
Data returned: 298

Values were extracted from ChEMBL document CHEMBL1155924.
